test system: HeLa MZ; assay: filipin (cholesterol) integrated intensity within LBPA endosomes, Z-score; higher = more cholesterol in LBPA endosomes; details: compound concentration in added solution (µM; 5 µl added to 20 µl cells): 10; 18 h
Structures can show the parent of a compound that is named as a salt.

>  <molecule>
Cc1nc2n(c(=O)c1CCN1CCC(c3noc4cc(F)ccc34)CC1)CCCC2

>  <filipin (z-score)>
0.539

$$$$
>  <molecule>
Cc1c(Nc2ncccc2C(=O)O)cccc1C(F)(F)F

>  <filipin (z-score)>
-0.549

$$$$
>  <molecule>
C[C@]12C=CC(=O)C=C1CC[C@@H]1[C@@H]2[C@@H](O)C[C@@]2(C)[C@H]1CC[C@]2(O)C(=O)CO

>  <filipin (z-score)>
-0.544

$$$$
>  <molecule>
Cc1cn[nH]c1 [Fomepizole]

>  <filipin (z-score)>
-0.633

$$$$
>  <molecule>
COc1cc2ncnc(Nc3ccc(F)c(Cl)c3)c2cc1OCCCN1CCOCC1

>  <filipin (z-score)>
2.83

$$$$
>  <molecule>
Cc1cccc(C)c1NC(=O)C1CCCCN1C (centres undefined) [Mepivacaine hydrochloride]

>  <filipin (z-score)>
-0.202

$$$$
>  <molecule>
CNCCc1ccccn1 [Betahistine mesylate]

>  <filipin (z-score)>
-0.6

$$$$
>  <molecule>
C#C[C@]1(O)CC[C@H]2[C@@H]3CCC4=CC(=O)CC[C@@H]4[C@H]3CC[C@@]21CC [Norgestrel-(-)-D]

>  <filipin (z-score)>
-0.446

$$$$
>  <molecule>
O=C1O[C@H]([C@@H](O)CO)C(O)=C1O

>  <filipin (z-score)>
-0.527

$$$$
